# procedure-text: activity coefficient (dimensionless); of the first substance listed, at infinite dilution; xn = mol fraction of the nth substance listed
# test-settings: 353.15 K; 101.33 kPa; Liquid; Chromatography; x1 = 0
outcome-measure: activity coefficient
Lab note: jot down the number only; don't add units.

Asked: For the compound C1CCCCC1 [cyclohexane] + CCCCCCCCn1cc[n+](C)c1C.O=S(=O)([N-]S(=O)(=O)C(F)(F)F)C(F)(F)F , what activity coefficient is on record?
Given back: 3.12

Asked: Input C1=CCCCC1 [cyclohexene] + CCCCCCCCn1cc[n+](C)c1C.O=S(=O)([N-]S(=O)(=O)C(F)(F)F)C(F)(F)F
Given back: 2.1

Asked: And then CCCCC [pentane] + CCCCCCCCn1cc[n+](C)c1C.O=S(=O)([N-]S(=O)(=O)C(F)(F)F)C(F)(F)F , what is it?
Given back: 3.66
